# protocol.text: label from the status in PepcDB records
readout.kind: protein production

MNKQIDLPIADVQGSLDTRHIAIDRVGIKAIRHPVVVADKGGGSQHTVAQFNMYVNLPHNFKGTHMSRFVEILNSHEREISVESFEEILRSMVSRLESDSGHIEMAFPYFINKSAPVSGVKSLLDYEVTFIGEIKHGNQYSFTMKVIVPVTSLCPCSKKISDYGAHNQRSHVTISVRTNSFIWIEDIIRIAEEQASCELYGLLKRPDEKYVTERAYNNPKFVEDIVRDVAEVLNHDDRIDAYIVESENFESIHNHSAYALIERDKRIR ... not failed
METGAGIGLYPLHRCKTIYLVRHAQGIHNVDGEKNYKAYMSHDYFDAELTQLGWKQVDSLRKHVHSSGLHKKIELVISSPLMRTLQTAVGVFGGEGYTDMSDVLPLMVANAGNSSRAAISSLNCPPVITEESCREHLGVHPCDQRRSISDYQFLFPAVDFSLIESEEDKLWKADVRETIEELAARGKKFLNWLWTRKEKEIAIVTHSGFLFHTLNALQNECHPDVKKEICGHFANCELRSMVIVDRSMLGSDSSVTDYPGKIPKGIDLPSDAVVDDNNIKVE ... not failed
